Molecular target: T1, recombinant human cANGPTL4 (C-terminus fibrinogen-like signaling peptide of angiopoietin-like 4) (human, UniProt Q9BY76 166-406)
T1 construct: also called C-terminus of ANGPTL4
T1 sequence: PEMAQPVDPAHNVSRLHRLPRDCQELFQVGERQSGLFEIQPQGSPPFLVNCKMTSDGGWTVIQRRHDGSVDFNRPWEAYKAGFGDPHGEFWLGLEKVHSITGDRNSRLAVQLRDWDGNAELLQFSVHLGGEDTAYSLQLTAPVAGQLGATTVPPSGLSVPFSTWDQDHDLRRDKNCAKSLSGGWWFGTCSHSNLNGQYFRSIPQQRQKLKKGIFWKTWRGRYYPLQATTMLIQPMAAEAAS
Assay: SPR (Reichert 2SPR), purified recombinant human cANGPTL4
measurement_label: kon (M⁻¹ s⁻¹)
Please reply with the bare figure in M⁻¹ s⁻¹ and do not write the unit itself.

# input Give a short answer stating reported kon for Ab-E, monoclonal rat-anti-human cANGPTL4 antibody (antibody, V domains shown) VH: EVQLVESGGGLVQPGRSMKLSCAASGFTFSSFAMAWVRQAPTKGLEWVASISYDGGNTYYRDSVKGRFTISRDNAKSSLYLQMDSLRSEDTSTYYCASADLIWWYFDFWGPGTMVTVSS VL: DIQMTQSPASLSASLEEIVTITCQASQDIGNWLAWYQQKPGKSPQLLIYGSTSLADGVPSRFSGSRSGTQYSLKISRLQVEDIGIYYCQQASSAPPTFGAGTKLELK .
# output 21500

# input Give a short answer stating reported kon for Ab-D, monoclonal rat-anti-human cANGPTL4 antibody (antibody, V domains shown, also called Antibody Ab-D) VH: EVQLVESGGGLVQPGRSLKLSCAASGFTFSNYGMAWVRQTPTKGLEWVASISTGGGNTYYRDSVKGRFTISRDNAKNTQYLQMDSLRSEDTATYYCARDSTVDYFDYWGQGVMVTVSS VL: DIQMTQSPSFLSASVGDRVTINCKASQKINKYLNWYQQKLGEAPKRLIYNTNNLQTGIPSRFSGSGSGTDFTLTISSLQPEDFATYCCLQHNSFPGTFGGGTKLELK .
# output 81100

# input Give a short answer stating reported kon for Ab-C, monoclonal rat-anti-human cANGPTL4 antibody (antibody, V domains shown) VH: EVQLVDSGGGLVQPGRSLKLSCAASGFTFSNYGMAWVRQIPTKGLEWVASISSGGGNTYYRDSVKGRFTISRDNAKNTQYLQMDSLRSEDTATYYCARDPGITGFDYWGQGVMVTVSS VL: DIQMTQSPSFLSASVGDRVTINCKASQNINKYLNWYQQKLGEAPKRLIYNTNTLQTGIPSRFSGSGSGTDYTLTISSLQPEDFATYFCLQHNSFPGTFGPGTTLELK .
# output 67800

# input Give a short answer stating reported kon for Ab-B, monoclonal rat-anti-human cANGPTL4 antibody (antibody, V domains shown) VH: EVQLVESGGGLVQPGRSLKLSCAASGFTFSNYGMAWVRQTPTKGLEWVASISTGGSDTYYRDSVKGRFTISRDNAKNTQYLQMDSLRSEDTATYYCARQGFTEDTDYWGQGVMVTVSS VL: DIQMTQSPSFLSASVGDRVTINCKASQNINKYLNWYQQKLGEAPKRLIYNTNNLQTGIPSRFSGSGSGTDYTLTISSLQPEDFATYFCLQHNSFPGTFGGGTKLELK .
# output 269000

Data provenance is patent US20220389088A1.
